result_type: pKd
// scale note: pKd = -log10(conc_M); give the bare number

# query: pKd | item `COc1ccc2cc([C@H](C)C(=O)Nc3cc(C)ccn3)ccc2c1` | system: Serine/threonine-protein kinase RIO2 (Homo sapiens, UniProt Q9BVS4)
6.28

* * *

Please provide measured DC50 for the entries that follow.
# target_or_system: E3 ubiquitin-protein ligase RNF126/Serine/threonine-protein kinase RIO2 (Homo sapiens, UniProt Q9BVS4+Q9BV68)
# Sequence (Q9BVS4 whole entry): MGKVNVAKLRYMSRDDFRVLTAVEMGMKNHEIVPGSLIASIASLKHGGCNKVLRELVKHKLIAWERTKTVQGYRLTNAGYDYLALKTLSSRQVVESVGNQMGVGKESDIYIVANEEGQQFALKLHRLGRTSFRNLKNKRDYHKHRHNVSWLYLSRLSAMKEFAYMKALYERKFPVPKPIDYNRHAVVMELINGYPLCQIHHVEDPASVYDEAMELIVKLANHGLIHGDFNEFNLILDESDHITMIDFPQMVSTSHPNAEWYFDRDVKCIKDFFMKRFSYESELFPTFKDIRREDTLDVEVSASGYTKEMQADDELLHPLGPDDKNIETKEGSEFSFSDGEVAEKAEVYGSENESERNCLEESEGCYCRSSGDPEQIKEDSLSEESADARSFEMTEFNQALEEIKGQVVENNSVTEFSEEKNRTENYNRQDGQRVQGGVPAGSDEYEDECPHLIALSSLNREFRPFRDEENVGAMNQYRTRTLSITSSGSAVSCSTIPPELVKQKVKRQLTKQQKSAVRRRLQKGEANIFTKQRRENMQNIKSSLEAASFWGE
# Sequence (Q9BV68 whole entry): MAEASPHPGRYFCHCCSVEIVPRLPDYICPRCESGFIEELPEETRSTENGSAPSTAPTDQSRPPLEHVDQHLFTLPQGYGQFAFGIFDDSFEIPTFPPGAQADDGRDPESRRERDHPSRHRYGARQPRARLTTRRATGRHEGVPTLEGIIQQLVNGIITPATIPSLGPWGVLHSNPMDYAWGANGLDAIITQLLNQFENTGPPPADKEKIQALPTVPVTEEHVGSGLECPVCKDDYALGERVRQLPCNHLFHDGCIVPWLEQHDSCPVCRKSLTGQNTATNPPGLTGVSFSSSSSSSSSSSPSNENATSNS
# assay_details: Molecular glue degradation activity at RNF126/RIOK2 in human MOLT-4 cells assessed as induction protein degradation incubated for 12 hrs by immunoblot analysis
# Format: cell-based

Given the entry `COc1ccc(/C=C/C(=O)N2CCN(c3ccc(-n4nnc5c(=O)[nH]c6ccc(-c7ccc(OC)nc7)cc6c54)cc3C(F)(F)F)CC2)cc1` , report its measured DC50.
> 10 µM

Given the entry `COc1ccc(-c2ccc3[nH]c(=O)c4nnn(-c5ccc(N6CCN(C(=O)CCC(=O)c7ccc(F)cc7)CC6)c(C(F)(F)F)c5)c4c3c2)cn1` , report its measured DC50.
> 10 µM

Given the entry `COc1ccc(-c2ccc3[nH]c(=O)c4nnn(-c5ccc(N6CCN(C(=O)/C=C/c7ccc(C(F)(F)F)cc7)CC6)c(C(F)(F)F)c5)c4c3c2)cn1` , report its measured DC50.
> 10 µM

The reported numbers originate from ChEMBL document CHEMBL6078724.
